Target: T1, human GIP receptor (human, UniProt P48546 22-466)
T1 sequence (looked up): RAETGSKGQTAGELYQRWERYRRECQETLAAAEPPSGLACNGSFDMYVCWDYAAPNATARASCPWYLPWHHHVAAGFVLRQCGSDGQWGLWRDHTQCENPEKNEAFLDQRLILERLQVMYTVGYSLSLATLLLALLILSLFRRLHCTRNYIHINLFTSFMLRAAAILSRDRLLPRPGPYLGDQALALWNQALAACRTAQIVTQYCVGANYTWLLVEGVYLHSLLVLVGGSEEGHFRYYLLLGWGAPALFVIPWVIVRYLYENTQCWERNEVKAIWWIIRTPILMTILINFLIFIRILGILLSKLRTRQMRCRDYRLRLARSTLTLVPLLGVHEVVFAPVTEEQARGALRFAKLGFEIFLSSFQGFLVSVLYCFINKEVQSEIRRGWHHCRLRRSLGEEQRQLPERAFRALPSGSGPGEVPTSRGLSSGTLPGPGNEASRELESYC
Test: cell-based or functional assay
*1 amine or outer side, *2 acyl side, *3 side chain or, on linkers, in order; H or OH if unused. Where no end group is shown, it is not given here. Side-chain parts run from the residue outwards. [ ]: non-standard residue; d: D form. The star is where a group is joined. C16 diacid = O=C(O)CCCCCCCCCCCCCCC(=O)*; γGlu = O=C(O)[C@H](CCC(=O)[*:2])N[*:1]; pGlu = O=C1CC[C@@H](C(=O)O)N1; AEEA = NCCOCCOCC(=O)O
In this section we review reported CisBio cAMP antagonism pIC50 values for a set of binders.

Binder	CisBio cAMP antagonism pIC50
EGTFISDYSIAMDRIK([AEEA-AEEA-γGlu-C16 diacid])QQDFVNWLLAQR-NH2 (not fully specified (residue 1)) [AT374]	7.8
[pGlu]GTFISDYSIAMDRIK([AEEA-AEEA-γGlu-C16 diacid])QQDFVNWLLAQR-NH2 [AT379]	7.7
TFISDYSIALDRIKQQDFVNWLLAQR-NH2 (not fully specified (residue 14); printed as TFISDYSIALDRIKQQDFVNWLLAQR-(AEEAc +γ-Glu)-C16-diacid/K18) [AT234]	7.4
